// values below are reported activity change, negative = cytotoxicity
- assay: qHTS assay to identify small molecule agonists of the androgen receptor (AR) signaling pathway in the presence of an antagonist - cell viability counter screen (AID 1259379);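 also: MDA-kb2 human breast cancer cells carrying an MMTV luciferase reporter; % is scaled to controls: 0 for no effect and ±100 for the full control effect; nearly all actives have a fitted effect of over 25% in size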
- conditionParameters: MDA-kb2 viability, CellTiter-Fluor, 16 h; series mostly up to 92.4 µM
Records with an inconclusive call do not appear. Activity calls are given as the source filed them. Calls follow the shape of the dose curve; as a rule, active = well fitted cell-killing curve with a large enough effect in the repeat runs; inconclusive = weak or mixed curves, or effect the other way; inactive = flat fitted curve, though single readings scatter.

molecule	activity change, negative = cytotoxicity
C[C@@H](O)[C@H](N)C(=O)O	-0.428% [at 19 µM] (inactive)
NC[C@H]1O[C@H](O[C@H]2[C@H](O[C@@H]3O[C@H](CO)[C@@H](O)[C@H]3O)C(O)[C@H](N)C[C@@H]2N)[C@H](N)[C@@H](O)[C@@H]1O (some centres undefined)	2.75% [at 8.39 µM] (inactive)
CC(C)Cn1cnc2c(N)nc3ccccc3c21	-7.59% [at 19 µM] (inactive)

Could you now look at the following molecule, please?
Item: `O=C(O)CN(CCN(CC(=O)O)CC(=O)O)CC(=O)O` | activity change, negative = cytotoxicity: -0.833% [at 3.27 µM] (inactive)

###

- assay: qHTS assay to identify small molecule antagonists of the androgen receptor (AR) signaling pathway using the MDA cell line in the presence of 0.5 nM R1881 - cell viability counter screen (AID 1259242); also: % is scaled to controls: 0 for no effect and ±100 for the full control effect; nearly all actives have a fitted effect of over 45% in size
- conditionParameters: MDA-kb2 viability, CellTiter-Fluor protease fluorescence, 16 h; series mostly up to 92.4 µM
Records with an inconclusive call do not appear. Activity calls are given as the source filed them. Calls come from the whole dose curve; as a rule, active = well fitted cell-killing curve with a large enough effect in the repeat runs; inconclusive = weak or mixed curves, or effect the other way; inactive = flat fitted curve, though single readings scatter.
endpointLabel: viability change, negative = cytotoxic

                                 smilesdata                           endpointlabel                  observedresult
0      O=C(O)CN(CCN(CC(=O)O)CC(=O)O)CC(=O)O  viability change, negative = cytotoxic    4.5% [at 3.26 µM] (inactive)
1  C[C@H]1NCc2cc(-c3ccc4c(=O)c(C(=O)O)cn(C5CC5)c4c3OC(F)F)ccc21  viability change, negative = cytotoxic   -0.218% [at 19 µM] (inactive)
2              CC(C)Cn1cnc2c(N)nc3ccccc3c21  viability change, negative = cytotoxic    -4.33% [at 19 µM] (inactive)
3                                   O=C(O)O  viability change, negative = cytotoxic  0.635% [at 8.39 µM] (inactive)

Could you now look at the following compound, please?
Item: `CC(C)(C)CC(C)(C)c1ccc(Nc2ccc(C(C)(C)CC(C)(C)C)cc2)cc1` | viability change, negative = cytotoxic: 0.0791% [at 8.39 µM] (inactive)

###

- assay: qHTS assay to identify small molecule agonists of the TGF-beta/Smad signaling pathway - cell viability counter screen (AID 1346829); also: top concentration of the series differs between compounds; % is scaled to controls: 0 for no effect and ±100 for the full control effect; nearly all actives have a fitted effect of over 45% in size
- conditionParameters: SBE-bla HEK293T viability, CellTiter-Glo luminescence, 5 h; series mostly up to 76.8 µM
Inconclusive results are not listed. Activity calls are given as the source filed them. Calls follow the shape of the dose curve; as a rule, active = well fitted cell-killing curve with a large enough effect in the repeat runs; inconclusive = weak or mixed curves, or effect the other way; inactive = flat fitted curve, though single readings scatter.
endpointLabel: activity change, negative = cytotoxicity

In [3]: df
Out[3]:
                                   compound  observedresult
0  Cc1cc(C(C)(C)C)c(O)c(C)c1Cn1c(=O)n(Cc2c(C)cc(C(C)(C)C)c(O)c2C)c(=O)n(Cc2c(C)cc(C(C)(C)C)c(O)c2C)c1=O        inactive
1         CC(=O)CC(=O)Nc1ccc(S(=O)(=O)O)cc1        inactive
2  CCCCCCCCCCCC(=O)OCC(C)OC(=O)CCCCC(=O)O (stereo not drawn)        inactive
3                    CCCCCCCC/C=C\CCCCCCCCN        inactive

Item: CC(CCc1ccccc1)NCC(O)c1ccc(O)c(C(N)=O)c1 (stereo not drawn) | activity change, negative = cytotoxicity: inactive

Item: `COc1ccc2cc1Oc1ccc(cc1)C[C@H]1c3c(cc4c(c3Oc3cc5c(cc3OC)CCN(C)[C@@H]5C2)OCO4)CCN1C` | activity change, negative = cytotoxicity: inactive

Item: `COc1cc(C)ccc1O` | activity change, negative = cytotoxicity: inactive

Item: `O=C(/C=C/c1ccc(O)c(O)c1)O[C@@H](C(=O)O)[C@@H](OC(=O)/C=C/c1ccc(O)c(O)c1)C(=O)O` | activity change, negative = cytotoxicity: inactive

Item: `C1CCC(SSC2CCCCC2)CC1` | activity change, negative = cytotoxicity: inactive

Item: `COc1cc(S(=O)(=O)O)c(C)cc1N=Nc1c(O)ccc2cc(S(=O)(=O)O)ccc12` | activity change, negative = cytotoxicity: inactive

Item: COC(=O)C1=C(C)NC(C)=C(C(=O)OCCN2CCN(C(c3ccccc3)c3ccccc3)CC2)C1c1cccc([N+](=O)[O-])c1 (stereo not drawn) | activity change, negative = cytotoxicity: inactive

The measured values listed here are drawn from PubChem BioAssay (Tox21).
